Tested on: U-2932
assay text: growth inhibition by drug plus 177Lu-lilotomab satetraxetan (1 - RLU/untreated control) (fraction); higher = stronger inhibition
run conditions: 10 nM; time (day): 5; 177Lu-lilotomab satetraxetan 1 ug/ml
Counter-ions that a name gives are not always drawn.
property label: growth inhibition by drug plus 177Lu-lilotomab satetraxetan

compound	assayed system	result
CO[C@@H](C(=O)N1Cc2[nH]nc(NC(=O)c3ccc(N4CCN(C)CC4)cc3)c2C1)c1ccccc1	U-2932	0.116
N#CC1(c2ccc(NC(=O)c3cccnc3NCc3ccncc3)cc2)CCCC1 [Apatinib (YN968D1)]	U-2932	0.109
CC(C)c1onc(-c2c(Cl)cccc2Cl)c1COc1ccc(/C=C/c2cccc(C(=O)O)c2)c(Cl)c1	U-2932	0.0726
CN1CCN(c2ccc3nc(-c4c(N)c5c(F)cccc5[nH]c4=O)[nH]c3c2)CC1 [Dovitinib (TKI-258)]	U-2932	0.118
COc1cc2ncnc(-n3nc(-c4ccccn4)nc3N)c2cc1OC	U-2932	0.1
O=C(NCCS(=O)(=O)c1ccc(C(F)(F)F)cn1)c1ccc(Cl)cc1	U-2932	0.0668
O=C1CN2Cc3c(ccc(Cl)c3Cl)N=C2N1 [Anagrelide]	U-2932	0.208
CN(C)c1nc(N(C)C)nc(N(C)C)n1 [Altretamine (Hexalen)]	U-2932	-0.0141
COc1cc(OC2CCN(C)CC2)ccc1Nc1ncc2c(n1)n(C1CCCC1)c(=O)n2C	U-2932	0.0152
CC(=O)O[C@H]1C(=O)[C@@]2(C)[C@H]([C@H](OC(=O)c3ccccc3)[C@]3(O)C[C@H](OC(=O)[C@H](O)[C@@H](NC(=O)c4ccccc4)c4ccccc4)C(C)=C1C3(C)C)[C@]1(OC(C)=O)CO[C@@H]1C[C@@H]2O [Paclitaxel (Taxol)]	U-2932	0.866
COc1ccc(/C=C\c2cc(OC)c(OC)c(OC)c2)cc1O [Combretastatin A4]	U-2932	0.983
C[C@H](NC(=O)Cc1cc(F)cc(F)c1)C(=O)N[C@@H]1C(=O)N(C)c2ccccc2-c2ccccc21	U-2932	-0.0625
Cc1csc(-c2nnc(Nc3ccc(Oc4ncccc4-c4ccnc(N)n4)cc3)c3ccccc23)c1	U-2932	0.207
Cc1ccc([N+](=O)[O-])cc1S(=O)(=O)N(C)/N=C/c1cnc2ccc(Br)cn12	U-2932	0.418
O=c1[nH]nc(Sc2ncc([N+](=O)[O-])s2)n1-c1ccc2c(c1)OCCO2	U-2932	0.0435
CN1CC[C@H](c2c(O)cc(O)c3c(=O)cc(-c4ccccc4Cl)oc23)[C@H](O)C1 [Flavopiridol hydrochloride]	U-2932	0.0958
CCC1=C[C@@H]2CN(C1)Cc1c([nH]c3ccccc13)[C@@](C(=O)OC)(c1cc3c(cc1OC)N(C)[C@H]1[C@@](O)(C(=O)OC)[C@H](OC(C)=O)[C@]4(CC)C=CCN5CC[C@]31[C@@H]54)C2 [Vinorelbine (Navelbine)]	U-2932	0.598
Cc1ccnc(NS(=O)(=O)c2ccc(NC(=O)Nc3ccc(S(=O)(=O)Nc4nccc(C)n4)cc3)cc2)n1	U-2932	0.162
COc1ccc(CCN2CCN(CCCc3ccccc3)CC2)cc1OC	U-2932	0.0479
Nc1nc(N)c(N=O)c(OCC2CCCCC2)n1	U-2932	-0.000656
C[C@@H]1CN(CC(=O)Nc2ccc3c(c2)Cc2cccc(-c4cc(=O)cc(N5CCOCC5)o4)c2S3)C[C@H](C)O1	U-2932	-0.0361
Cc1ccc(S(=O)(=O)C=CC#N)cc1	U-2932	0.0547
Nc1ccc(C(=O)Nc2cccc(-c3nc(N4CCOCC4)c4oc5ncccc5c4n3)c2)cn1	U-2932	0.0937
CCOc1ccc(Cc2cc([C@@H]3O[C@H](CO)[C@@H](O)[C@H](O)[C@H]3O)ccc2Cl)cc1 [Dapagliflozin]	U-2932	0.185
O=c1oc2c(O)c(O)cc3c(=O)oc4c(O)c(O)cc1c4c23 [Ellagic acid]	U-2932	0.0162
CC(C)(C)c1ccc(S(=O)(=O)/C=C/C#N)cc1	U-2932	0.0584
OC[C@H]1O[C@@H](n2cnc3c2N=CNC[C@H]3O)C[C@@H]1O [Pentostatin]	U-2932	0.0512
COc1ccc(CCN(C)CCCOc2ccc(S(=O)(=O)c3c(C(C)C)n(C)c4ccccc34)cc2)cc1OC	U-2932	0.156
CN(C)C/C=C/C(=O)Nc1cc2c(Nc3ccc(F)c(Cl)c3)ncnc2cc1O[C@H]1CCOC1 [Afatinib (BIBW2992)]	U-2932	0.0798
C[C@@H]1C[C@H]2[C@@H]3CCC4=CC(=O)C=C[C@]4(C)[C@@]3(F)[C@@H](O)C[C@]2(C)[C@@]1(O)C(=O)CO [Dexamethasone]	U-2932	0.26
CC(=O)c1c(C)c2cnc(Nc3ccc(N4CCNCC4)cn3)nc2n(C2CCCC2)c1=O	U-2932	0.0227

----------
Tested on: U-2932
assay text: growth inhibition by drug alone (1 - RLU/untreated control) (fraction); higher = stronger inhibition
run conditions: 10 nM; time (day): 5; 177Lu-lilotomab satetraxetan 0 ug/ml
Where a name gives a salt, the structure may show the parent alone.

compound	assayed system	growth inhibition by drug alone
O=C1[C@H](CC[C@H](O)c2ccc(F)cc2)[C@@H](c2ccc(O)cc2)N1c1ccc(F)cc1 [Ezetimibe (Zetia)]	U-2932	0.0126
CC[C@@H]1/C=C(\C)C[C@H](C)C[C@H](OC)[C@H]2O[C@@](O)(C(=O)C(=O)N3CCCC[C@H]3C(=O)O[C@H](/C(C)=C/[C@@H]3CC[C@H](Cl)[C@H](OC)C3)[C@H](C)[C@@H](O)CC1=O)[C@H](C)C[C@@H]2OC	U-2932	0.272
CN(c1ncccc1CNc1nc(Nc2ccc3c(c2)CC(=O)N3)ncc1C(F)(F)F)S(C)(=O)=O	U-2932	0.0358
O=C(/C=C/c1cccc(S(=O)(=O)Nc2ccccc2)c1)NO	U-2932	0.137
N#Cc1c(O)c2c(-c3ccc(-c4ccccc4O)cc3)csc2[nH]c1=O	U-2932	-0.0374
CCC(CC)CC1(C(=O)Nc2ccccc2SC(=O)C(C)C)CCCCC1	U-2932	0.00914
COc1cccc2c1C(=O)c1c(O)c3c(c(O)c1C2=O)C[C@@](O)(C(=O)CO)C[C@@H]3O[C@H]1C[C@H](N)[C@@H](O)[C@H](C)O1 [Epirubicin Hydrochloride]	U-2932	0.0717
Nc1ccc(-c2ccc3ncc4ccc(=O)n(-c5cccc(C(F)(F)F)c5)c4c3c2)cn1	U-2932	0.24
Cc1[nH]c(/C=C2\C(=O)Nc3ccc(S(=O)(=O)N(C)c4cccc(Cl)c4)cc32)c(C)c1C(=O)N1CCN(C)CC1	U-2932	-0.0727
CC[C@@H]1C(=O)N(C)c2cnc(Nc3ccc(C(=O)NC4CCN(C)CC4)cc3OC)nc2N1C1CCCC1	U-2932	0.867
O=C1CN2Cc3c(ccc(Cl)c3Cl)N=C2N1 [Anagrelide hydrochloride]	U-2932	-0.0277

----------
Listing of entries alongside the reported growth inhibition by drug alone.
System: U-2932
assay text: growth inhibition by drug alone (1 - RLU/untreated control) (fraction); higher = stronger inhibition
run conditions: 10 nM; time (day): 3; 177Lu-lilotomab satetraxetan 0 ug/ml
Where a name gives a salt, the structure may show the parent alone.
property label: growth inhibition by drug alone

compound	numeric result
CC(C)C[C@H](NC(=O)CNC(=O)c1cc(Cl)ccc1Cl)B(O)O	-0.0591
CN1CC[C@H](c2c(O)cc(O)c3c(=O)cc(-c4ccccc4Cl)oc23)[C@H](O)C1 [Flavopiridol hydrochloride]	-0.0754
CCCS(=O)(=O)Nc1ccc(F)c(C(=O)c2c[nH]c3ncc(-c4ccc(Cl)cc4)cc23)c1F [Vemurafenib (PLX4032)]	0.026
c1ccc2c(CCNc3ccc(Nc4ccncc4)cc3)c[nH]c2c1	0.0584
CN[C@@H](C)C(=O)N[C@H]1CN(C(=O)CC(C)C)CC[C@H]2CC[C@@H](C(=O)NC(c3ccccc3)c3ccccc3)N2C1=O	0.0554
O=C(c1ccc(OCCN2CCCCC2)cc1)c1c(-c2ccc(O)cc2)sc2cc(O)ccc12 [Evista (Raloxifene Hydrochloride)]	0.0697
CNC(=O)c1cc(COc2nnc(Nc3ccc(Cl)cc3)c3ccoc23)ccn1 [Telatinib (BAY 57-9352)]	-0.0124
Cc1csc(-c2nnc(Nc3ccc(Oc4ncccc4-c4ccnc(N)n4)cc3)c3ccccc23)c1	0.0562
CN(N=O)C(=O)N[C@@H](C=O)[C@@H](O)[C@H](O)[C@H](O)CO [Streptozotocin (Zanosar)]	-0.0672
CC(=O)O[C@]1(C(C)=O)CC[C@H]2[C@@H]3C[C@H](C)C4=CC(=O)CC[C@]4(C)[C@H]3CC[C@@]21C [Medroxyprogesterone acetate]	0.141
COc1cccc2c1C(=O)c1c(O)c3c(c(O)c1C2=O)C[C@@](O)(C(=O)CO)C[C@@H]3O[C@H]1C[C@H](N)[C@@H](O)[C@H](C)O1 [Epirubicin Hydrochloride]	0.0435
C[C@H](NC(=O)Cc1cc(F)cc(F)c1)C(=O)N[C@H](C(=O)OC(C)(C)C)c1ccccc1	-0.0234
